B1: LINE1-full (parent)
chain: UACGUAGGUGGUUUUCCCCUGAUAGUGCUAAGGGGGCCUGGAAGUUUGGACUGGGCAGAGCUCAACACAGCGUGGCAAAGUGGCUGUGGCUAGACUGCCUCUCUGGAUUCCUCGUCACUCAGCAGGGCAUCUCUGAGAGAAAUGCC

Variants of: B1
test: self-cleavage, relative activity (ratio to wild type); higher = more cleavage; in vitro, sequencing; the parent is a self-cleaving ribozyme
Attribute: self-cleavage
Please respond with just the number, no unit label.

UACGUAGGUGGUUUUCCCCUGAUAGUGCUAAGGGGGCCUGGAAGUUUGGACUGGGCAGAGCUCAACACAGCGUGGCAAAGUGGCUGUGGCUAGACUGCCUCUCUGGAUUCCUCGACACUCAGCAGGGCAUCUCUGGGAGAAAUGCC [U115A A136G]; 1.68
UACGUAGGUAGUUUUCCCCUGAUAGUGCUAAGGGGGCCUGGAAGUUUGGACUGGGCAGAGCUCAACUCAGCGUGGCAAAGUGGCUGUGGCUAGACUGCCUCUCUGGAUUCCUCGUCACUCAGCAGGGCAUCUCUGAGAGAAAUGCC [G10A A67U]; 0.07
UACGUAGGUGGUUUUCCCCUGAUAGUGCUAAGGGGGCCUGGAAGUUUGGACUGGGCAGAGCUCAACACAGCGUAGCAAAGUGGCUGUGGCUAGACUGCCUCUCUGGAUUCCUAGUCACUCAGCAGGGCAUCUCUGAGAGAAAUGCC [G74A C113A]; 0.85
UACGUAGGUGGUUUUCCCCUGAUAGUGCUAAGGGGGCCUGGAAGUUUGGACUGGGCAGAGCUCAACACAGCGUGGCAAAGAGGCUGUGGCUAGACUGCCUCUCUGGAUUCCUCGUCACUCAGCAGGGCAUCUCUGUGAGAAAUGCC [U81A A136U]; 2.35
UACGUAGGUGGUUUUCCCCUGAUAGUGCUAAGGGGGCCUGGAAGUUUGGACUGGGCAGAGCUUAACACAGCGUGGCGAAGUGGCUGUGGCUAGACUGCCUCUCUGGAUUCCUCGUCACUCAGCAGGGCAUCUCUGAGAGAAAUGCC [C63U A77G]; 0.62

Give the measured self-cleavage of UACGUAGGUGGUUUUCCCCUGAUAGUGCUAAGGGGGCCUGAAAGUUUGGACUGGGCAGAGCUCAACACAGCGUGGCAAAGUGGCUGUGGCUAGACUGCCUCUCUGGAUUCCUCGUCACUCAGCAGGGCAUCUCGGAGAGAAAUGCC [G41A U134G] . 0.98

Quick check: self-cleavage of UACGUAGGUGGUUUUCCCCUGAUUGUGCUAAGGGGGCCUGGAAGUUUGGACUGGGCAGAGCUCAACACAGCGUGGCAAAGUGGCUGUGGCUAGACUGCCUCUCUGGAUUCCUCGUCACUCAGCAGGGCACCUCUGAGAGAAAUGCC [A24U U130C] ? 1.35

Given UACGUAGGUGGUUUUCCCCUGAUAGCGCUAGGGGGGCCUGGAAGUUUGGACUGGGCAGAGCUCAACACAGCGUGGCAAAGUGGCUGUGGCUAGACUGCCUCUCUGGAUUCCUCGUCACUCAGCAGGGCAUCUCUGAGAGAAAUGCC [U26C A31G] , state its recorded self-cleavage. 0.91

Recorded self-cleavage for UACGUAGGUGGUUUUCCCCUGAUAGUGCUAAGGGGGCCUGGAAGUUUGGACUGGGCAGAGCUCAACACAGCGUGGCAAAGUGGCUGUGGCUAGACUGCCUCUCUGGAUUCCUCUUCACUCAGCAGGGCAUCUCUGAGAGAGAUGCC [G114U A141G] , please? 1.86

Find the recorded self-cleavage belonging to UACGUAGGUGGUUUUCCCCUGAUAGUGCUAAGGGGGCCUGGAAGUUUGGACUGGGCAGAGCUCAACACAGCGUGGCAUAGUGGCUGUGGCUAGACUGCCUCUCUGGAUUCCUCGUCACUCAGCAGGGCAUCUCUGAGAGAAAUGCC [A78U] and report it. 1.92

Fill in the blank: the reported self-cleavage of UACGUAGGUGGUUUUCCCUUGAUAGUGCUAAGGGGCCCUGGAAGUUUGGACUGGGCAGAGCUCAACACAGCGUGGCAAAGUGGCUGUGGCUAGACUGCCUCUCUGGAUUCCUCGUCACUCAGCAGGGCAUCUCUGAGAGAAAUGCC [C19U G36C] is ____. 0.82

Consider the variant shown here: UACGUAGGUGGUUUUCCCCUGAUAGUGCUAAGGGGGCCUGGAAGUCUGGACUGGGCAGAGCUCAACACAGCGUGGCAAAGUGGCUGUGGCUAGACUGCCUCUCUGGAUUCCUCGUCACUCUGCAGGGCAUCUCUGAGAGAAAUGCC [U46C A121U] What is its recorded self-cleavage? 1.25
